All values here come from paper doi:10.1101/2024.08.25.609621.

- target.system: SARS-CoV-2 NSP3 macrodomain (Mac1) (Severe acute respiratory syndrome coronavirus 2, UniProt P0DTD1)
- assay.remarks: biochemical
- Assay type: binding
- particulars: Single dose, 200 μM; mean of three technical replicates
parameter: Average % competition (%)
The reply should contain only the number, in %.

Completed entries (count: 5):
molecule	Average % competition [%]
c1ccc(-n2nnnc2CSc2nnc(NC3CC3)s2)cc1	0
Cc1ccc2c(c1)CC[C@@H](C(=O)Nc1nnc3n1CCCC3)O2	9
CC1CC(C(=O)O)CN(C(=O)CSc2ccc(O)cc2)C1 (stereo not drawn)	25
Nc1nnc(SCCn2c(=O)oc3ccccc32)s1	7
CCn1c(C)nnc1Sc1cnc2ccccc2n1	0

Moving on to the next molecule.
Request: If you can, please state the reported Average % competition value of COc1ccc(NC(=O)NC2CCCC2)cc1-n1nnnc1C .
Response: 0
